Target: human GLP-1 receptor (human, UniProt P43220 24-463)
Assay: cell-based or functional assay
Where no end group is shown, it is not given here. [ ]: non-standard residue; d: D form. Bip(2'-Et-4'-OMe) = CCc1cc(OC)ccc1-c1ccc(C[C@H](N)C(=O)O)cc1; αMePhe(2,6-F2) = C[C@](N)(Cc1c(F)cccc1F)C(=O)O; αMeBip(OMe) = alpha-methylated Bip(OMe); hhPhe = N[C@@H](CCCc1ccccc1)C(=O)O; αMeD = C[C@](N)(CC(=O)O)C(=O)O; αMeP = C[C@@]1(C(=O)O)CCCN1; αMeAPPA = not defined here; αMeS = C[C@](N)(CO)C(=O)O; Ac5c = NC1(C(=O)O)CCCC1; Ac3c = NC1(C(=O)O)CC1; Aib = CC(C)(N)C(=O)O
Recorded cAMP release, % activity with respect to control, at 10 nM by entry

# example entries with known answers
Binder	Reported Result
VVH[αMeP]EGT[αMePhe(2,6-F2)]TSD[αMeBip(OMe)][hhPhe]-NH2 [Seq. ID. No. 228]	80 % of control
VH[Ac5c]QGTFTSD[αMeBip(OMe)][hhPhe] (not fully specified (C-terminus)) [Seq. ID. No. 9]	99 % of control
VH[αMeP]QGTFT[αMeS][αMeD][Bip(2'-Et-4'-OMe)][αMeAPPA] (not fully specified (C-terminus); printed as VH-(αMe-Pro)-QGTFT-(αMe-Ser)-(αMe-Asp)-Bip(OMe)-(αMe-APPA); reading uncertain) [Seq. ID. No. 110]	99 % of control
VH[Ac3c]EGTFTSD[αMeBip(OMe)][hhPhe] (not fully specified (C-terminus)) [Seq. ID. No. 16]	99 % of control
VH[Aib]EGT[αMePhe(2,6-F2)]TSD[Bip(2'-Et-4'-OMe)][αMeAPPA] (not fully specified (C-terminus); printed as VH-Aib-EGT-(αMe-2,6-diFPhe)-TSD-Bip(OMe)-(αMe-APPA); reading uncertain) [Seq. ID. No. 105]	99 % of control

q: Name the recorded cAMP release, % activity with respect to control, at 10 nM for VH[αMeP]EGTFT[αMeS]D[αMeBip(OMe)][αMeAPPA] (not fully specified (C-terminus); printed as VH-(αMe-Pro)-EGTFT-(αMe-Ser)-D-(αMe-Bip(OMe))-(αMe-APPA); reading uncertain) [Seq. ID. No. 164] .
a: 77 % of control

q: Now this one: VH[αMeP]QGT[αMePhe(2,6-F2)]TS[αMeD][αMeBip(OMe)][hhPhe] (not fully specified (C-terminus)) [Seq. ID. No. 76]
a: 97 % of control

q: Now this one: VH[Aib]QGTFTSD[αMeBip(OMe)][hhPhe]-NH2 [Seq. ID. No. 7]
a: 88 % of control
